Attribution: the supplement of paper PMC10949913

System: CU-ACC1
Experiment: area under concentration-response curve (viability) (AUC (a.u.)); higher = less active
Details: 48 h
EXPERIMENTAL_READOUT: area under concentration-response curve
One number for each entry.

MOLECULE	area under concentration-response curve
Cn1ncc2cc(-c3cnc(N)c(Cl)c3N3CCC4(CCNC4=O)CC3)ccc21	475
NC\1=N\C(=O)N(\C=N1)[C@H]2C[C@H](O)[C@@H](CO)O2	500
Cc1cc(F)c(C(=O)Nc2cccc(-c3nncn3C(C)C)n2)cc1-n1cnc(C2CC2)c1	427
CC(=O)Nc1ccc(OC[C@](C)(O)C(=O)Nc2ccc([N+](=O)[O-])c(C(F)(F)F)c2)cc1	519
Cc1ccc(O)c(C(CCN(C(C)C)C(C)C)c2ccccc2)c1.Cl (configuration not stated)	491

Batch of 6 molecules: report area under concentration-response curve for each.
1. CC(C)(C)C(=O)OCOP(=O)(COCCn1cnc2c(N)ncnc21)OCOC(=O)C(C)(C)C
2. COC[C@H]1OC(=O)C2=COC3=C2[C@@]1(C)\C4=C(\[C@@H]5CC[C@H](O)[C@@]5(C)C[C@H]4OC(C)=O)C3=O
3. Fc1cc(-c2cccc3ncc(-c4cnn(C5CCNCC5)c4)nc23)cc(F)c1CN1CCOCC1
4. O=C(O)CCc1ccc(NCc2cccc(Oc3ccccc3)c2)cc1
5. Cc1[nH]nc(C(F)(F)F)c1Cc1sc2c(c1C(=O)N1C[C@](C)(O)CO1)c(=O)n(C)c(=O)n2C(C)C
6. CCCCCCCOc1ccc(CCC(N)(CO)CO)cc1C(F)(F)F

[456, 311, 390, 546, 431, 446]

###

Tested on: CU-ACC2
Test: area under concentration-response curve (viability) (AUC (a.u.)); higher = less active
Conditions: 48 h
EXPERIMENTAL_READOUT: area under concentration-response curve
Answers are plain numbers.

Solved cases (5 shown):
COMPOUND	SYSTEM	area under concentration-response curve
Clc1ccccc1CN1CCc2sccc2C1	CU-ACC2	617
CC\1=C/C=C\C=[N]1[Pt](N)(Cl)Cl	CU-ACC2	450
Nc1nccn2c1c(-c1cc3cccc(Cl)c3[nH]1)nc2[C@H]1CC[C@H](C(=O)O)CC1	CU-ACC2	589
O=c1[nH]c2ccccc2n1C1CCN(Cc2ccc(-c3nc4cc5nc[nH]c5cc4nc3-c3ccccc3)cc2)CC1	CU-ACC2	604
Oc1c(Cl)cc(Cl)c2cccnc12	CU-ACC2	426

I need area under concentration-response curve for every entry listed below, if you could help.
1. CC(C)OC1=C(F)C=C(C=C1)C2=N[N]([C@@H](C)C/3=C(C4=CC(=CC=C4)F)/C(=O)C5=CC(=CC=C5O3)F)C6=C2C(=NC=N6)N
2. Clc1ccc(C(Cn2ccnc2)OCc2c(Cl)cccc2Cl)c(Cl)c1 (stereo not given)
3. C[C@@H]1C[C@H]2[C@@H]3\C=C(C)/C4=C/C5=C(C[C@]4(C)[C@H]3[C@@H](O)C[C@]2(C)[C@@]1(O)C(=O)COC(C)=O)C=N[N]5C6=CC=CC=C6
4. CNC(=O)C1=CC=C(C)C(=C1)N2C(=C/C(=C(/Br)C2=O)OCC3=C(F)C=C(F)C=C3)\C
5. CC(C)(C)Sc1c(CC(C)(C)C(=O)O)n(Cc2ccc(Cl)cc2)c2ccc(OCc3ccc4ccccc4n3)cc12
6. Cn1c(-c2ccccc2C(F)(F)F)nnc1C12CCC(c3noc(C4CC(F)(F)C4)n3)(CC1)CC2
7. CN(C)C(=O)COC(=O)Cc1ccc(OC(=O)c2ccc(NC(=N)N)cc2)cc1
8. Cc1ccc(NC(=O)[C@H]2CCCN(C(=O)c3c(C)cccc3F)[C@H]2c2ccc(NC3CCCC3)cc2)cc1C(F)(F)F

1. 641
2. 525
3. 608
4. 547
5. 624
6. 594
7. 564
8. 561

Required: area under concentration-response curve, one value per compound below.
1. CC/1=C/C(=O)N(O)/C(=C1)C2CCCCC2
2. CC1=C(C)C\2=C(S1)[N]3C(=NN=C3[C@H](CC(=O)NC4=CC=C(OCCOCCOCCOCCNC5=CC=CC6=C5C(=O)N(C7CCC(=O)NC7=O)C6=O)C=C4)\N=C2C8=CC=C(Cl)C=C8)C (stereo not given in full)

1: 570; 2: 484
